# TESTED ON: Ba/F3 EML4-ALK v1 I1171N (Homo sapiens (Human), UniProt Q9HC35+Q9UM73, I1171N)
# Sequence (Q9UM73 other isoform, or with tags, fused parts or gaps I1171N): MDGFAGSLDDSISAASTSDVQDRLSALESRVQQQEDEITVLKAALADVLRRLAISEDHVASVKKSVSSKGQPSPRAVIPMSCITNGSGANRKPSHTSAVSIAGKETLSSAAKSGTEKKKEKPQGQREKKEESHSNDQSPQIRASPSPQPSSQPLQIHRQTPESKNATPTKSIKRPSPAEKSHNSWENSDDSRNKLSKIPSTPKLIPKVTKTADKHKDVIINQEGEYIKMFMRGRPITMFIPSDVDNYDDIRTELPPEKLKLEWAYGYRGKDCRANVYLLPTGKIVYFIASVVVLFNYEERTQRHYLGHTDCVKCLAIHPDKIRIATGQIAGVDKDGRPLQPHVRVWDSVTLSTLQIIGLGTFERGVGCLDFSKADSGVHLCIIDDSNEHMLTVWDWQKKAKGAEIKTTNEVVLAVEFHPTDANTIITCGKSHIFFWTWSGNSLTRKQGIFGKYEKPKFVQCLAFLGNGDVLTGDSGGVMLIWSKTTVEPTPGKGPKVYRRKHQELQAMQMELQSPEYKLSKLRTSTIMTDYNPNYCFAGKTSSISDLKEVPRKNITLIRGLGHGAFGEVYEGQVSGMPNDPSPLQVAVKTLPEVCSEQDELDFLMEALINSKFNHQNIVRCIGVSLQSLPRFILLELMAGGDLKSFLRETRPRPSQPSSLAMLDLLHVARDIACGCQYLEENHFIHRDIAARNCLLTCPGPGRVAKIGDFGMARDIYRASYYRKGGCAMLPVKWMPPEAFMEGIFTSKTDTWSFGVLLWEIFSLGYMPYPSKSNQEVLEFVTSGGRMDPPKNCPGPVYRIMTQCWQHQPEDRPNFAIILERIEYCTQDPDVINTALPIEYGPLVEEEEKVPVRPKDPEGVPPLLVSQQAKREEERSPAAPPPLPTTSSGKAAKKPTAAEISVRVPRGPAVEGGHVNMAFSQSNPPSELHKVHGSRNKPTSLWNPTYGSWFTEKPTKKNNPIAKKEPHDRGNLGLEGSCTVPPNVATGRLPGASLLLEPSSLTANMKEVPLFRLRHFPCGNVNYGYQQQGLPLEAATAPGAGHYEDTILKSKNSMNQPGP
# ASSAY NAME: Ba/F3 cell proliferation assay, EML4-ALK v1 I1171N
# CONDITION LABEL: Ba/F3 stable cells, 72 hours, CellTiter-Glo
pIC50: −log10 of the molar value.
ASSAY METRIC: pIC50

INSERT INTO measurements (compound, tested_on, result) VALUES
  ('CCc1c2c(nn1C)C(=O)c1cccnc1-c1ccc(F)cc1[C@@H](C)Oc1cc-2cnc1N [Example 54]', 'Ba/F3 EML4-ALK v1 I1171N (Homo sapiens (Human), UniProt Q9HC35+Q9UM73, I1171N)', '7.30 to 10.00'),
  ('CCn1nc(C(=O)N(C)C)c2c1-c1cnc(N)c(c1)O[C@H](C)c1cc(F)ccc1-c1nn(C)cc1C2 [Example 7]', 'Ba/F3 EML4-ALK v1 I1171N (Homo sapiens (Human), UniProt Q9HC35+Q9UM73, I1171N)', '7.30 to 10.00'),
  ('C[C@H]1Oc2cc(cnc2N)-c2c(c(C(=O)N(C)C)nn2C2CCC2)Cc2cn(C)nc2-c2ccc(F)cc21 [Example 35]', 'Ba/F3 EML4-ALK v1 I1171N (Homo sapiens (Human), UniProt Q9HC35+Q9UM73, I1171N)', '7.30 to 10.00'),
  ('C[C@H]1Oc2cc(cnc2N)-c2c(c(C#N)nn2CC2CC2)Cc2cn(C)nc2-c2ccc(F)cc21 [Example 1]', 'Ba/F3 EML4-ALK v1 I1171N (Homo sapiens (Human), UniProt Q9HC35+Q9UM73, I1171N)', '6.30 to 7.30'),
  ('C[C@H]1Oc2cc(cnc2N)-c2c(C#N)nn(C(=O)N(C)C)c2Cc2cccnc2-c2ccc(F)cc21 [Example 27]', 'Ba/F3 EML4-ALK v1 I1171N (Homo sapiens (Human), UniProt Q9HC35+Q9UM73, I1171N)', '7.30 to 10.00'),
  ('CCn1ncc2c1-c1cnc(N)c(c1)O[C@H](C)c1cc(F)ccc1-c1ncccc1C2=O [Example 76]', 'Ba/F3 EML4-ALK v1 I1171N (Homo sapiens (Human), UniProt Q9HC35+Q9UM73, I1171N)', '< 6.30'),
  ('C[C@H]1Oc2cc(cnc2N)-c2c(c(C#N)nn2CC2CC2)Cc2cccnc2-c2ccc(F)cc21 [Example 66]', 'Ba/F3 EML4-ALK v1 I1171N (Homo sapiens (Human), UniProt Q9HC35+Q9UM73, I1171N)', '6.30 to 7.30');

src = patent US20250326769A1
